study system: T1, CADM1-His (Acro Biosystems) (human, UniProt Q9BY67 45-374)
T1 construct: Bought; also called CADM1/IGSF4A; not shown: His tag of the bought protein
T1 sequence: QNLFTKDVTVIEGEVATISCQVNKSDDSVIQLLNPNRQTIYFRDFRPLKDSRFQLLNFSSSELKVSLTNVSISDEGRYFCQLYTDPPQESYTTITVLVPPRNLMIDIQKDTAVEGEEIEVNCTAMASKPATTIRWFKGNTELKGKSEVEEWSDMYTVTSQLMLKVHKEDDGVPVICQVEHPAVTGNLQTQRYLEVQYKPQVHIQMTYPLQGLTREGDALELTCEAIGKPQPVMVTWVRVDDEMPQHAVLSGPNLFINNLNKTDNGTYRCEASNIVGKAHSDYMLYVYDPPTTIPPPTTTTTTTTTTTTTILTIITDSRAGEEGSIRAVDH
protocol notes: ELISA on coated CADM1-His, 150 ng IgG1; None 0.059
quantity: ELISA Absorbance (405 nm-570 nm)
Number only, please.

binder	ELISA Absorbance (405 nm-570 nm)
HW-97 chimeric rabbit-human IgG1 LA/LA/PG (antibody, V domains shown, Fc-silenced (L234A/L235A/P329G) IgG1, lambda; Alexa Fluor 647-labeled in single-step flow cytometry; Prototype of cluster C-97) VH: QKQLVESGGRLVTPGTPLTLTCTVTGIDLSSHGMSWVRQAPGKGLEWIGVIYPSGSTWYASWARGRFTISKTSTTVDLKMTSLTTEDTATHFCARGDVGGADNNIWGPGTLVTVSS VL: SFVLTQPASVQVDLGQTVSLTCTAETLSRSYASWYQQKPGQAPVLLIYRDTSRPSGVPDRFSGSSSGNTATLTISGAQAGDEADYYCATSDGSGSSYQYVFGGGTQLTVTG	0.679

Quote ELISA Absorbance (405 nm-570 nm) reported for HW-16 chimeric rabbit-human IgG1 LA/LA/PG (antibody, V domains shown, Fc-silenced (L234A/L235A/P329G) IgG1, kappa; Alexa Fluor 647-labeled in single-step flow cytometry; Cluster C-45) VH: QSLEESGGRLVTPGTPLTLTCTASGFSLSSYAMSWVRQAPGKGLEWIGTMPTGGGTYYASWAKGRFTISKTSTTVDLQITSPTTEDTATYFCAKHWNIWGPGTLVTISS VL: DIVLTQTPSSTSTAVGDTVTINCRASQSIGRNLAWFQQKPGQPPKLLIYRASNLASGVPSRFKGSGSRTQFTLTISGVQREDAATYYCLGSYSSSDTAFGGGTELEILR please.
0.067

Quote ELISA Absorbance (405 nm-570 nm) reported for HW-1 chimeric rabbit-human IgG1 LA/LA/PG (antibody, V domains shown, Fc-silenced (L234A/L235A/P329G) IgG1, lambda; Alexa Fluor 647-labeled in single-step flow cytometry; Prototype of cluster C-1) VH: QSLEESGGGLFKPTDTLTLTCTASGFSLGSSYAISWVRQAPGKELEWIGTIDSGRAYYARWAKSRSTITRNTNENTVTLKMTSLTAADTATYFCARDLIPTYSQDIWGPGTLVTISS VL: SFVLTQPASVQVNLGQTVSLTCTADTLSRRYASWYQQKPGQAPVLLIYRDTSRPSGVPDRFSGSSSGNTATLTISGAQAGDEADYYCATSDGSGNSYQYVFGGGTQLTVTS please.
0.053

Quote ELISA Absorbance (405 nm-570 nm) reported for HW-8 chimeric rabbit-human IgG1 LA/LA/PG (antibody, V domains shown, Fc-silenced (L234A/L235A/P329G) IgG1, kappa; Alexa Fluor 647-labeled in single-step flow cytometry; Cluster C-45) VH: QSLEESGGRLVTPGTPLTLTCTVSGFSLSSYAMSWVRQAPGKGLEWIGAISTGGSTTYASWAKGRFTISKTSSTTVDLKMTSLTTEDTATYFCVRHFRLWGPGTLVTISS VL: QVLTQTPSSVSAAVGGTVTIKCQASQSIGSALAWFQQKPGQRPKLLIYRASNLASGVPSRFKGSGSGTEFALTISGVQREDAATYYCLGGAAAVWAFGAGTNVEIKR please.
0.05

Cited source for all entries: patent US20260049134A1
